system: PXR:RXRa (NR concentration 270 nM, RXRa partner concentration 90 nM); experiment: PBM binding z-score (relative to random genomic background probes); higher = stronger binding; sequences stand for … in GC…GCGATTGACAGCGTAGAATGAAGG
quantity-kind: PBM binding z-score
One number for each entry.

These solved cases illustrate the format of a correct answer.
biopolymer_sequence=AAGACAGGGTCATCGTAGGCCAGAGTACGCACAG test_value=4.95
biopolymer_sequence=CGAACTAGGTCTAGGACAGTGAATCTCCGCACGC test_value=-0.626
biopolymer_sequence=CCTATTTGGTCAGGAGGTCACACACCGGATATGA test_value=4.35
biopolymer_sequence=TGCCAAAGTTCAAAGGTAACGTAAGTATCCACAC test_value=6.14
biopolymer_sequence=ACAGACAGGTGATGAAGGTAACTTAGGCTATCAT test_value=-0.0368
biopolymer_sequence=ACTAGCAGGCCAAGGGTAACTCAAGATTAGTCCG test_value=-0.287

Give measured PBM binding z-score for every item shown.
1. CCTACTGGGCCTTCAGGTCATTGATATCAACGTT
2. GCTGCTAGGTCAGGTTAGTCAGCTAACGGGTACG
3. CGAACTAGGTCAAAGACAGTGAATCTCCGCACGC
4. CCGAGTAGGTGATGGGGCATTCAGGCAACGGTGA
5. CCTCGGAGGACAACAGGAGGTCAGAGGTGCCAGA
6. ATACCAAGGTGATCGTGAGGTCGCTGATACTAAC

1. 1.47
2. 0.128
3. 1.06
4. -0.262
5. 2.36
6. 1.86

For each listed entry, give its PBM binding z-score.
1. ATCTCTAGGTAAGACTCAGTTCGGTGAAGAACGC
2. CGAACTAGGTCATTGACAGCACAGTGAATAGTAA
3. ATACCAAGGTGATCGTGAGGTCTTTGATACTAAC

[0.179, 1.18, 0.655]
